molecular target: GLP-1 receptor (GLP-1R) (human, UniProt P43220 24-463); assay: cell-based or functional assay
Non-standard residues stand in square brackets, D forms with d. Groups on a side chain read outwards from the residue. Primed or numbered codes have the meaning given here. No end group written: not given here. *: point of attachment. Dodecylbenzoate = dodecylbenzoyl lipid group; Stearoyl = CCCCCCCCCCCCCCCCCC(=O)*; αMeF = C[C@](N)(Cc1ccccc1)C(=O)O; αMeK = C[C@](N)(CCCCN)C(=O)O; αMeS = C[C@](N)(CO)C(=O)O; PEG2′ = not defined here; Aib = CC(C)(N)C(=O)O; Ahx = NCCCCCC(=O)O
propertyMeasured: Primary assay EC50 (cAMP), GLP-1R n2 (pM)

1. H[Aib]EGS[αMeF]TSDV[αMeS]S[αMeF]LEGEAA[αMeK]E[αMeF]IA[αMeF]VVK([PEG2′-Dodecylbenzoate])GG-NH2 [SEQ ID NO 179]
4.4
2. H[Aib]EGS[αMeF]TSDV[αMeS]S[αMeF]LEGEAAK([PEG2′-PEG2′-PEG2′-Stearoyl])E[αMeF]IA[αMeF]VV[αMeK]GG-NH2 [SEQ ID NO 154]
2.3
3. H[Aib]EGS[αMeF]TSDV[αMeS]S[αMeF]LEGEAA[αMeK]E[αMeF]IA[αMeF]VVK([PEG2′-PEG2′-Stearoyl])GG-NH2 [SEQ ID NO 189]
12
4. H[Aib]EGS[αMeF]TSDV[αMeS]S[αMeF]LEGEAA[αMeK]E[αMeF]IA[αMeF]VVK([PEG2′-Stearoyl])GG-NH2 [SEQ ID NO 197]
34
5. H[Aib]EGS[αMeF]TSDV[αMeS]S[αMeF]LEGEAA[αMeK]E[αMeF]IA[αMeF]VVK([PEG2′-PEG2′-PEG2′-Dodecylbenzoate])GG-NH2 [SEQ ID NO 181]
0.83

a: H[Aib]EGS[αMeF]TSDV[αMeS]S[αMeF]LEGEAAK([PEG2′-PEG2′-Stearoyl])E[αMeF]IA[αMeF]VV[αMeK]GG-NH2 [SEQ ID NO 162]
b: H[Aib]EGS[αMeF]TSDV[αMeS]S[αMeF]LEGEAA[αMeK]E[αMeF]IA[αMeF]VVK([Ahx-Dodecylbenzoate])GG-NH2 [SEQ ID NO 176]
// select label with min value of measured Primary assay EC50 (cAMP), GLP-1R n2 from [ a , b ] Output the label that corresponds to your choice.
b
